Task for the reader: assign each of the following variants its reported protein stability index.
B1: ZNF449 (parent)
chain: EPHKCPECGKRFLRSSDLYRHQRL

# Variants of: B1
# measurementDescription: protein stability index of a GFP-peptide fusion (GPS, HEK-293T) (PSI 1-6); higher = more stable;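 further: lentivirally expressed fusions sorted by FACS into six bins by GFP to DsRed ratio, PSI derived from sequencing read proportions per bin multiplied by bin number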
# testConditions: c terminus: a fixed tail appended
Please respond with just the number, no unit label.

### Prompt Can you share its protein stability index? I mean this variant: L24F
### Response 3.23

### Prompt Can you share its protein stability index? I mean this variant: E1L
### Response 2.81

### Prompt Can you share its protein stability index? I mean this variant: L18D
### Response 2.87

### Prompt Can you share its protein stability index? I mean this variant: K10F
### Response 2.52

### Prompt Can you share its protein stability index? I mean this variant: H3Q
### Response 3.31

### Prompt Can you share its protein stability index? I mean this variant: L18F
### Response 3.44

### Prompt Can you share its protein stability index? I mean this variant: P6D
### Response 4.46

### Prompt Can you share its protein stability index? I mean this variant: H21G
### Response 1.84

### Prompt Can you share its protein stability index? I mean this variant: L13I
### Response 3.5

### Prompt Can you share its protein stability index? I mean this variant: S16P
### Response 2.99

### Prompt Can you share its protein stability index? I mean this variant: E7M
### Response 3.65

### Prompt Can you share its protein stability index? I mean this variant: R14F
### Response 3.76

### Prompt Can you share its protein stability index? I mean this variant: R20A
### Response 4.66

### Prompt Can you share its protein stability index? I mean this variant: Q22E
### Response 3.92

### Prompt Can you share its protein stability index? I mean this variant: L13H
### Response 3.85

### Prompt Can you share its protein stability index? I mean this variant: F12Q
### Response 2.03

### Prompt Can you share its protein stability index? I mean this variant: H21M
### Response 2

### Prompt Can you share its protein stability index? I mean this variant: L24E
### Response 4.95

### Prompt Can you share its protein stability index? I mean this variant: L24H
### Response 4.18

### Prompt Can you share its protein stability index? I mean this variant: G9W
### Response 2.12

### Prompt Can you share its protein stability index? I mean this variant: C5P
### Response 3.07

### Prompt Can you share its protein stability index? I mean this variant: P6F
### Response 3.22

### Prompt Can you share its protein stability index? I mean this variant: D17K
### Response 2.33

### Prompt Can you share its protein stability index? I mean this variant: H21D
### Response 2.79

### Prompt Can you share its protein stability index? I mean this variant: E7F
### Response 3.25

### Prompt Can you share its protein stability index? I mean this variant: R23L
### Response 3.7

### Prompt Can you share its protein stability index? I mean this variant: K10G
### Response 2.11

### Prompt Can you share its protein stability index? I mean this variant: H21W
### Response 1.29

### Prompt Can you share its protein stability index? I mean this variant: F12R
### Response 2.15

### Prompt Can you share its protein stability index? I mean this variant: H21C
### Response 2.15

### Prompt Can you share its protein stability index? I mean this variant: R11C
### Response 4.31

### Prompt Can you share its protein stability index? I mean this variant: L24W
### Response 3.01

### Prompt Can you share its protein stability index? I mean this variant: K4E
### Response 4.73

### Prompt Can you share its protein stability index? I mean this variant: C8D
### Response 4.03

### Prompt Can you share its protein stability index? I mean this variant: F12Y
### Response 2.72

### Prompt Can you share its protein stability index? I mean this variant: L24G
### Response 4.52

### Prompt Can you share its protein stability index? I mean this variant: E1R
### Response 3.37

### Prompt Can you share its protein stability index? I mean this variant: R23A
### Response 3.74

### Prompt Can you share its protein stability index? I mean this variant: E1D
### Response 4.06

### Prompt Can you share its protein stability index? I mean this variant: C5S
### Response 3.44

### Prompt Can you share its protein stability index? I mean this variant: P2N
### Response 3.37

### Prompt Can you share its protein stability index? I mean this variant: S15Y
### Response 4.03

### Prompt Can you share its protein stability index? I mean this variant: R20P
### Response 2.88

### Prompt Can you share its protein stability index? I mean this variant: H3K
### Response 3.23

### Prompt Can you share its protein stability index? I mean this variant: F12D
### Response 2.13

### Prompt Can you share its protein stability index? I mean this variant: R14L
### Response 3.51

### Prompt Can you share its protein stability index? I mean this variant: L18V
### Response 3.12

### Prompt Can you share its protein stability index? I mean this variant: R23W
### Response 2.94

### Prompt Can you share its protein stability index? I mean this variant: K10V
### Response 3.31

### Prompt Can you share its protein stability index? I mean this variant: Y19N
### Response 3.4

### Prompt Can you share its protein stability index? I mean this variant: C5Q
### Response 3.6

### Prompt Can you share its protein stability index? I mean this variant: D17M
### Response 2.35

### Prompt Can you share its protein stability index? I mean this variant: S16D
### Response 4.06

### Prompt Can you share its protein stability index? I mean this variant: D17N
### Response 2.22

### Prompt Can you share its protein stability index? I mean this variant: E1Q
### Response 3.12

### Prompt Can you share its protein stability index? I mean this variant: D17I
### Response 2.04

### Prompt Can you share its protein stability index? I mean this variant: K10N
### Response 2.52

### Prompt Can you share its protein stability index? I mean this variant: Y19P
### Response 2.62

### Prompt Can you share its protein stability index? I mean this variant: R14P
### Response 2.2

### Prompt Can you share its protein stability index? I mean this variant: G9R
### Response 2.31

### Prompt Can you share its protein stability index? I mean this variant: D17G
### Response 2.58

### Prompt Can you share its protein stability index? I mean this variant: H21Q
### Response 1.91

### Prompt Can you share its protein stability index? I mean this variant: L13C
### Response 4.05

### Prompt Can you share its protein stability index? I mean this variant: F12S
### Response 1.86

### Prompt Can you share its protein stability index? I mean this variant: P6T
### Response 3.52

### Prompt Can you share its protein stability index? I mean this variant: R11D
### Response 4.27

### Prompt Can you share its protein stability index? I mean this variant: K10P
### Response 2.33

### Prompt Can you share its protein stability index? I mean this variant: D17R
### Response 2.34

### Prompt Can you share its protein stability index? I mean this variant: L18N
### Response 2.67

### Prompt Can you share its protein stability index? I mean this variant: P2V
### Response 3.02

### Prompt Can you share its protein stability index? I mean this variant: P2D
### Response 4

### Prompt Can you share its protein stability index? I mean this variant: E7V
### Response 3.44

### Prompt Can you share its protein stability index? I mean this variant: K4G
### Response 3.68

### Prompt Can you share its protein stability index? I mean this variant: R20N
### Response 4.21

### Prompt Can you share its protein stability index? I mean this variant: S15T
### Response 3.9

### Prompt Can you share its protein stability index? I mean this variant: C8V
### Response 3.25

### Prompt Can you share its protein stability index? I mean this variant: Y19S
### Response 3.68

### Prompt Can you share its protein stability index? I mean this variant: R14Y
### Response 3.59

### Prompt Can you share its protein stability index? I mean this variant: L13K
### Response 4.5

### Prompt Can you share its protein stability index? I mean this variant: S16Y
### Response 3.05

### Prompt Can you share its protein stability index? I mean this variant: D17P
### Response 2.38

### Prompt Can you share its protein stability index? I mean this variant: Y19Q
### Response 3.84

### Prompt Can you share its protein stability index? I mean this variant: S15E
### Response 4.54

### Prompt Can you share its protein stability index? I mean this variant: K10M
### Response 3.99

Cited source for all entries: the supplement of paper PMC10567573
